Could you please report measured Ratio IC50 for the items listed next?
# System: 1A9
# protocol notes: Resistance ratio of IC50 for human 1A9PTX22 cells to IC50 for human 1A9 cells
# Type: functional
Numbers only.

Consider the reported Ratio IC50 for these compounds:
[[record]]
query_smiles = "CC(=O)O[C@@]12CO[C@@H]1C[C@H](O)[C@@]1(C)C(=O)[C@H](OC(=O)C3CC3)C3=C(C)[C@@H](OC(=O)[C@H](O)[C@H](C=C(C)C)NC(=O)OC(C)(C)C)C[C@@](O)([C@@H](OC(=O)c4ccccc4)[C@H]21)C3(C)C"
obs_value = 1.6

[[record]]
query_smiles = "CC(=O)O[C@H]1C(=O)[C@@]2(C)[C@H]([C@H](OC(=O)c3ccccc3)[C@]3(O)C[C@H](OC(=O)[C@H](O)[C@H](CC(C)C)NC(=O)OC(C)(C)C)C(C)=C1C3(C)C)[C@]1(OC(C)=O)CO[C@@H]1C[C@@H]2O"
obs_value = 2

[[record]]
query_smiles = "CC(=O)O[C@@]12CO[C@@H]1C[C@H](O)[C@@]1(C)C(=O)[C@H](OC(=O)N(C)C)C3=C(C)[C@@H](OC(=O)[C@H](O)[C@H](C=C(F)F)NC(=O)OC(C)(C)C)C[C@@](O)([C@@H](OC(=O)c4ccccc4)[C@H]21)C3(C)C"
obs_value = 2.2


Continue with the compound presented below.
[Q] Tell me the measured Ratio IC50 of C/C=C(\C)C(=O)N[C@@H](c1ccccc1)[C@@H](O)C(=O)O[C@H]1C[C@@]2(O)[C@@H](OC(=O)c3cccc(N=[N+]=[N-])c3)[C@@H]3[C@]4(OC(C)=O)CO[C@@H]4C[C@H](OC(=O)CC)[C@@]3(C)C(=O)[C@H](O)C(=C1C)C2(C)C , please.
[A] 0.83

====

Could you please report measured Activity for the items listed next?
# system tested: Tubulin (Bos taurus) (UniProt Q6B856+Q862L2+Q862F3)
# protocol notes: Induction of calf brain tubulin polymerization assessed as tubulin concentration required to form microtubules by electron microscopy

[[record]]
compound = "CC(=O)O[C@@]12CO[C@@H]1C[C@H](O)[C@@]1(C)C(=O)[C@H](OC(=O)C3CC3)C3=C(C)[C@@H](OC(=O)[C@H](O)[C@H](C=C(C)C)NC(=O)OC(C)(C)C)C[C@@](O)([C@@H](OC(=O)c4ccccc4)[C@H]21)C3(C)C"
obs_value = "0.9 µM"

[[record]]
compound = "CC(=O)O[C@@]12CO[C@@H]1C[C@H](O)[C@@]1(C)C(=O)[C@H](O)C3=C(C)[C@@H](OC(=O)[C@H](O)[C@@H](NC(=O)OC(C)(C)C)c4ccccc4)C[C@@](O)([C@@H](OC(=O)c4ccccc4)[C@H]21)C3(C)C [DOCETAXEL]"
obs_value = "2.4 µM"


Kindly give each listed record's Activity.
1. CC(=O)O[C@H]1C(=O)[C@@]2(C)[C@H]([C@H](OC(=O)c3ccccc3)[C@]3(O)C[C@H](OC(=O)[C@H](O)[C@H](CC(C)C)NC(=O)OC(C)(C)C)C(C)=C1C3(C)C)[C@]1(OC(C)=O)CO[C@@H]1C[C@@H]2O
2. CCC(=O)O[C@H]1C(=O)[C@@]2(C)[C@H]([C@H](OC(=O)c3cccc(N=[N+]=[N-])c3)[C@]3(O)C[C@H](OC(=O)[C@H](O)[C@@H](NC(=O)OC(C)(C)C)c4ccccc4)C(C)=C1C3(C)C)[C@]1(OC(C)=O)CO[C@@H]1C[C@@H]2O

[A]
1: 1.6 µM; 2: 3.6 µM

Kindly give each listed record's Activity.
1. CC(=O)O[C@H]1C(=O)[C@@]2(C)[C@H]([C@H](OC(=O)c3ccccc3)[C@]3(O)C[C@H](OC(=O)[C@H](O)[C@@H](NC(=O)c4ccccc4)c4ccccc4)C(C)=C1C3(C)C)[C@]1(OC(C)=O)CO[C@@H]1C[C@@H]2O [PACLITAXEL]
2. C/C=C(\C)C(=O)N[C@@H](c1ccccc1)[C@@H](O)C(=O)O[C@H]1C[C@@]2(O)[C@@H](OC(=O)c3cccc(N=[N+]=[N-])c3)[C@@H]3[C@]4(OC(C)=O)CO[C@@H]4C[C@H](OC(=O)CC)[C@@]3(C)C(=O)[C@H](O)C(=C1C)C2(C)C
3. CC(=O)O[C@@]12CO[C@@H]1C[C@H](O)[C@@]1(C)C(=O)[C@H](OC(=O)N(C)C)C3=C(C)[C@@H](OC(=O)[C@H](O)[C@H](C=C(F)F)NC(=O)OC(C)(C)C)C[C@@](O)([C@@H](OC(=O)c4ccccc4)[C@H]21)C3(C)C
4. CCC(=O)O[C@H]1C(=O)[C@@]2(C)[C@H]([C@H](OC(=O)c3cccc(OC)c3)[C@]3(O)C[C@H](OC(=O)[C@H](O)[C@H](C=C(C)C)NC(=O)OC(C)(C)C)C(C)=C1C3(C)C)[C@]1(OC(C)=O)CO[C@@H]1C[C@@H]2O

[A]
["4.2 µM", "2.9 µM", "0.3 µM", "0.6 µM"]
